Cited source for all entries: patent US8933056B2

biological target: DP8 (Homo sapiens (Human)); assay: Selectivity for dipeptidyl peptidase isoforms, DP8; format: biochemical; conditions: pH 7.8; read-out: IC50s DP8 pH 7.8
Sequence (Q6V1X1 whole entry, species assumed, canonical isoform): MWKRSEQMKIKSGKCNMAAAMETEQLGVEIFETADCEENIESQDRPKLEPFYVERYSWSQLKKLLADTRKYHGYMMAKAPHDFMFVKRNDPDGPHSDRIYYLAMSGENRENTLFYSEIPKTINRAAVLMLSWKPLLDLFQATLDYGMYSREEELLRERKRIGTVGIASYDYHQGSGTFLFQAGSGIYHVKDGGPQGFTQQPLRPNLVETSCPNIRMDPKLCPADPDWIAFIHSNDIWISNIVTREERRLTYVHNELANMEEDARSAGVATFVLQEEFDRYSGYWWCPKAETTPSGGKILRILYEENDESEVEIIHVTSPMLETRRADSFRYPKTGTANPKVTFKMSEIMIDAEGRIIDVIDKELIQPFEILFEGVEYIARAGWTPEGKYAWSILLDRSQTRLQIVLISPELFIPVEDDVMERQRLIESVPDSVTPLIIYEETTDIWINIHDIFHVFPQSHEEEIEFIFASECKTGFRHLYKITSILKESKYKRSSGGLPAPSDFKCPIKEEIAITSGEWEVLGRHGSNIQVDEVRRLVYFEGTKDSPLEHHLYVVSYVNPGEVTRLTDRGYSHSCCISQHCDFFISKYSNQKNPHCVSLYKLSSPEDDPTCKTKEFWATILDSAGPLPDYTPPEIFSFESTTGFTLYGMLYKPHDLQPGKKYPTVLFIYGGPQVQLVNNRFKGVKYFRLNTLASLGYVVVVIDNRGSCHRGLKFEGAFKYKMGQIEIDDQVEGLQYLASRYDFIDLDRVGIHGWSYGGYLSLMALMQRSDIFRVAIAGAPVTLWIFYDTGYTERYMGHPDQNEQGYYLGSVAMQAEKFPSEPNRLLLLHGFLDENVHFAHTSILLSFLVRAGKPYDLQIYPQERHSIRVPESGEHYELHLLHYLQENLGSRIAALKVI
List of pIC50 values.
Please express pIC50 as -log10 of the molar concentration.

1. N[C@@H](CCC(=O)O)C(=S)N1CCC[C@H]1B(O)O [Glu-boroPro Thioxamide]    5.70

Prompt: Note down pIC50 recorded for OB(O)[C@@H]1CCCN1C(=S)[C@@H]1CCCN1 [Pro-boroPro Thioxamide]
Completion: 5.74

* * *

target: DPPIV (Homo sapiens (Human)); experiment: DPIV inhibition assay (Examples 2 and 3); assay type: biochemical; settings: pH 7.8; read-out: IC50s DPPIV pH 7.8
Sequence (P27487 whole entry, species assumed): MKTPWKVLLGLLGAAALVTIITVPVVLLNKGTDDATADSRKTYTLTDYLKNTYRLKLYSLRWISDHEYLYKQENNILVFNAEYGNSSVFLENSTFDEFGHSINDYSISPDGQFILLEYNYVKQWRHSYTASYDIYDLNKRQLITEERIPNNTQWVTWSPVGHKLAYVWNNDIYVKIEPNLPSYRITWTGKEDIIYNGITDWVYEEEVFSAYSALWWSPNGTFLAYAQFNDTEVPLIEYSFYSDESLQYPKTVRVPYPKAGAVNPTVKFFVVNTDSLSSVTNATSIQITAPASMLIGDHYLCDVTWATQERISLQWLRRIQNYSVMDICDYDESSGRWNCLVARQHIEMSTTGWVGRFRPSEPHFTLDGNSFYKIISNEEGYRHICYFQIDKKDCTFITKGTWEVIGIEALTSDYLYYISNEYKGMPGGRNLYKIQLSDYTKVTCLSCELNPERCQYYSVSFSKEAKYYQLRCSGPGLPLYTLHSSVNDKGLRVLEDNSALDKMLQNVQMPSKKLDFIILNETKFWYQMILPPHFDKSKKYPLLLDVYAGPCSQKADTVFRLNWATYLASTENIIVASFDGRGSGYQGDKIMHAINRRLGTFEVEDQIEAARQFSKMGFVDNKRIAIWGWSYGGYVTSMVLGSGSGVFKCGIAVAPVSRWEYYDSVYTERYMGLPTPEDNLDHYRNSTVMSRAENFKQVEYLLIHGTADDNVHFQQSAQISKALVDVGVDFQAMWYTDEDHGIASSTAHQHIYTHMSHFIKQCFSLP
measured attribute: IC50 (nM)
Value expressed in nM; do not type the unit.

Prompt: Note down IC50 recorded for N[C@@H](CCC(=O)O)C(=S)N1CCC[C@H]1B(O)O [Glu-boroPro Thioxamide]
Completion: 890
